This collection of values is drawn from patent US20230416298A1.

- methodSummary: Liver S9 stability
- Assay type: in vitro ADME
- assaySetup: human liver S9, 37° C.; Yes/No
measuredEndpoint: Stability in Human Liver S9 Formation of parent compound

molecule="CC(=O)OCCCC(C)C(=O)O[C@@H]1CC[C@@]2(C)[C@@H](CC[C@@H]3[C@@H]2CC[C@]2(C)[C@@H](C(C)=O)CC[C@@H]32)C1 (stereo partly shown)" result=No
molecule=CC(=O)[C@H]1CC[C@H]2[C@@H]3CC[C@H]4C[C@H](OC(=O)OCCOC(=O)C(C)C)CC[C@]4(C)[C@H]3CC[C@]12C result=Yes
molecule=CC(=O)[C@H]1CC[C@H]2[C@@H]3CC[C@H]4C[C@H](OC(=O)OCc5oc(=O)oc5C)CC[C@]4(C)[C@H]3CC[C@]12C result=Yes
molecule=CCCCCCC(=O)O[C@@H]1CC[C@@]2(C)[C@@H](CC[C@@H]3[C@@H]2CC[C@]2(C)[C@@H](C(C)=O)CC[C@@H]32)C1 result=No

* * *

- methodSummary: Liver S9 stability
- Assay type: in vitro ADME
- assaySetup: human liver S9, 37° C.; Yes/No
measuredEndpoint: Stability in Human Liver S9 Formation of parent compound

querysmiles=CC(=O)[C@H]1CC[C@H]2[C@@H]3CC[C@H]4C[C@H](OC(=O)N(C)CCOC(=O)C(C)C)CC[C@]4(C)[C@H]3CC[C@]12C result=Yes
querysmiles=CC(=O)[C@H]1CC[C@H]2[C@@H]3CC[C@H]4C[C@H](OC(=O)CCCOC(=O)C(C)C)CC[C@]4(C)[C@H]3CC[C@]12C result=No
querysmiles=CCCCCC(=O)O[C@@H]1CC[C@@]2(C)[C@@H](CC[C@@H]3[C@@H]2CC[C@]2(C)[C@@H](C(C)=O)CC[C@@H]32)C1 result=No
querysmiles=CC(=O)[C@H]1CC[C@H]2[C@@H]3CC[C@H]4C[C@H](OC(=O)OCCN(C)C(=O)C(C)C)CC[C@]4(C)[C@H]3CC[C@]12C result=No
querysmiles=CC(=O)OCCCCC(=O)O[C@@H]1CC[C@@]2(C)[C@@H](CC[C@@H]3[C@@H]2CC[C@]2(C)[C@@H](C(C)=O)CC[C@@H]32)C1 result=No
querysmiles=CC(=O)[C@H]1CC[C@H]2[C@@H]3CC[C@H]4C[C@H](OC(=O)CC5CCCC5)CC[C@]4(C)[C@H]3CC[C@]12C result=No
querysmiles=CC(=O)[C@H]1CC[C@H]2[C@@H]3CC[C@H]4C[C@H](OC(=O)OCCNC(=O)C(C)C)CC[C@]4(C)[C@H]3CC[C@]12C result=No
querysmiles=CC(=O)[C@H]1CC[C@H]2[C@@H]3CC[C@H]4C[C@H](OC(=O)NCCOC(=O)C(C)C)CC[C@]4(C)[C@H]3CC[C@]12C result=Yes
querysmiles=CC(=O)OCCCC(=O)O[C@@H]1CC[C@@]2(C)[C@@H](CC[C@@H]3[C@@H]2CC[C@]2(C)[C@@H](C(C)=O)CC[C@@H]32)C1 result=No
querysmiles=CCCCOC(=O)O[C@@H]1CC[C@@]2(C)[C@@H](CC[C@@H]3[C@@H]2CC[C@]2(C)[C@@H](C(C)=O)CC[C@@H]32)C1 result=Yes
querysmiles=COC(=O)N(C)CCOC(=O)O[C@@H]1CC[C@@]2(C)[C@@H](CC[C@@H]3[C@@H]2CC[C@]2(C)[C@@H](C(C)=O)CC[C@@H]32)C1 result=Yes

* * *

# half-life at 2 μM per record follows
- methodSummary: Plasma stability
- Assay type: in vitro ADME
- assaySetup: pooled plasma, pH 7.4, human plasma, 37° C., time points 0, 10, 30, 60 and 120 min
measuredEndpoint: half-life at 2 μM

querysmiles=CC(=O)[C@H]1CC[C@H]2[C@@H]3CC[C@H]4C[C@H](OC(=O)CCCOC(=O)C(C)C)CC[C@]4(C)[C@H]3CC[C@]12C measuredendpoint="half-life at 2 μM" result="0.833 to 3.33 h"
querysmiles=CCCCOC(=O)O[C@@H]1CC[C@@]2(C)[C@@H](CC[C@@H]3[C@@H]2CC[C@]2(C)[C@@H](C(C)=O)CC[C@@H]32)C1 measuredendpoint="half-life at 2 μM" result="> 3.33 h"
querysmiles=CC(=O)[C@H]1CC[C@H]2[C@@H]3CC[C@H]4C[C@H](OC(=O)OCc5oc(=O)oc5C)CC[C@]4(C)[C@H]3CC[C@]12C measuredendpoint="half-life at 2 μM" result="< 0.833 h"
querysmiles=CC(=O)[C@H]1CC[C@H]2[C@@H]3CC[C@H]4C[C@H](OC(=O)OCCNC(=O)C(C)C)CC[C@]4(C)[C@H]3CC[C@]12C measuredendpoint="half-life at 2 μM" result="> 3.33 h"
querysmiles=COC(=O)N(C)CCOC(=O)O[C@@H]1CC[C@@]2(C)[C@@H](CC[C@@H]3[C@@H]2CC[C@]2(C)[C@@H](C(C)=O)CC[C@@H]32)C1 measuredendpoint="half-life at 2 μM" result="> 3.33 h"
querysmiles=CC(=O)[C@H]1CC[C@H]2[C@@H]3CC[C@H]4C[C@H](OC(=O)CC5CCCC5)CC[C@]4(C)[C@H]3CC[C@]12C measuredendpoint="half-life at 2 μM" result="> 3.33 h"
querysmiles=CC(=O)OCCCC(=O)O[C@@H]1CC[C@@]2(C)[C@@H](CC[C@@H]3[C@@H]2CC[C@]2(C)[C@@H](C(C)=O)CC[C@@H]32)C1 measuredendpoint="half-life at 2 μM" result="0.833 to 3.33 h"
querysmiles=CC(=O)OCCCCC(=O)O[C@@H]1CC[C@@]2(C)[C@@H](CC[C@@H]3[C@@H]2CC[C@]2(C)[C@@H](C(C)=O)CC[C@@H]32)C1 measuredendpoint="half-life at 2 μM" result="0.833 to 3.33 h"
querysmiles=CC(=O)[C@H]1CC[C@H]2[C@@H]3CC[C@H]4C[C@H](OC(=O)OCCN(C)C(=O)C(C)C)CC[C@]4(C)[C@H]3CC[C@]12C measuredendpoint="half-life at 2 μM" result="> 3.33 h"
querysmiles=CCCCCC(=O)O[C@@H]1CC[C@@]2(C)[C@@H](CC[C@@H]3[C@@H]2CC[C@]2(C)[C@@H](C(C)=O)CC[C@@H]32)C1 measuredendpoint="half-life at 2 μM" result="> 3.33 h"
querysmiles=CCCCCCC(=O)O[C@@H]1CC[C@@]2(C)[C@@H](CC[C@@H]3[C@@H]2CC[C@]2(C)[C@@H](C(C)=O)CC[C@@H]32)C1 measuredendpoint="half-life at 2 μM" result="> 3.33 h"
querysmiles=CC(=O)[C@H]1CC[C@H]2[C@@H]3CC[C@H]4C[C@H](OC(=O)NCCOC(=O)C(C)C)CC[C@]4(C)[C@H]3CC[C@]12C measuredendpoint="half-life at 2 μM" result="> 3.33 h"

* * *

- methodSummary: Plasma stability
- Format: in vitro ADME
- assaySetup: pooled plasma, pH 7.4, human plasma, 37° C., time points 0, 10, 30, 60 and 120 min
measuredEndpoint: half-life at 2 μM

compound="CC(=O)[C@H]1CC[C@H]2[C@@H]3CC[C@H]4C[C@H](OC(=O)OCCOC(=O)C(C)C)CC[C@]4(C)[C@H]3CC[C@]12C [Example 19]" result="0.833 to 3.33 h"
compound="CC(=O)[C@H]1CC[C@H]2[C@@H]3CC[C@H]4C[C@H](OC(=O)N(C)CCOC(=O)C(C)C)CC[C@]4(C)[C@H]3CC[C@]12C [Example 23]" result="0.833 to 3.33 h"
compound="CC(=O)OCCCC(C)C(=O)O[C@@H]1CC[C@@]2(C)[C@@H](CC[C@@H]3[C@@H]2CC[C@]2(C)[C@@H](C(C)=O)CC[C@@H]32)C1 (stereo partly drawn) [Example 17]" result="0.833 to 3.33 h"

* * *

- methodSummary: Liver S9 stability
- Format: in vitro ADME
- assaySetup: human liver S9, 37° C., time points up to 60 min
measuredEndpoint: half-life at 1 μM

molecule=CC(=O)[C@H]1CC[C@H]2[C@@H]3CC[C@H]4C[C@H](OC(=O)OCCN(C)C(=O)C(C)C)CC[C@]4(C)[C@H]3CC[C@]12C result="< 50 min"
molecule=CC(=O)OCCCCC(=O)O[C@@H]1CC[C@@]2(C)[C@@H](CC[C@@H]3[C@@H]2CC[C@]2(C)[C@@H](C(C)=O)CC[C@@H]32)C1 result="< 50 min"
molecule=CCCCCCC(=O)O[C@@H]1CC[C@@]2(C)[C@@H](CC[C@@H]3[C@@H]2CC[C@]2(C)[C@@H](C(C)=O)CC[C@@H]32)C1 result="< 50 min"
molecule=CC(=O)[C@H]1CC[C@H]2[C@@H]3CC[C@H]4C[C@H](OC(=O)OCCOC(=O)C(C)C)CC[C@]4(C)[C@H]3CC[C@]12C result="< 50 min"
molecule=CCCCOC(=O)O[C@@H]1CC[C@@]2(C)[C@@H](CC[C@@H]3[C@@H]2CC[C@]2(C)[C@@H](C(C)=O)CC[C@@H]32)C1 result="< 50 min"
molecule=CC(=O)[C@H]1CC[C@H]2[C@@H]3CC[C@H]4C[C@H](OC(=O)OCCNC(=O)C(C)C)CC[C@]4(C)[C@H]3CC[C@]12C result="< 50 min"
molecule=COC(=O)N(C)CCOC(=O)O[C@@H]1CC[C@@]2(C)[C@@H](CC[C@@H]3[C@@H]2CC[C@]2(C)[C@@H](C(C)=O)CC[C@@H]32)C1 result="< 50 min"
molecule=CC(=O)OCCCC(=O)O[C@@H]1CC[C@@]2(C)[C@@H](CC[C@@H]3[C@@H]2CC[C@]2(C)[C@@H](C(C)=O)CC[C@@H]32)C1 result="< 50 min"
molecule="CC(=O)OCCCC(C)C(=O)O[C@@H]1CC[C@@]2(C)[C@@H](CC[C@@H]3[C@@H]2CC[C@]2(C)[C@@H](C(C)=O)CC[C@@H]32)C1 (stereo partly shown)" result="< 50 min"
molecule=CC(=O)[C@H]1CC[C@H]2[C@@H]3CC[C@H]4C[C@H](OC(=O)OCc5oc(=O)oc5C)CC[C@]4(C)[C@H]3CC[C@]12C result="< 50 min"
